Collected Ki values appear next to each entry.
- tested-system: rNPFF-2 (Rattus norvegicus, UniProt Q9EQD2)
- Construct: expressed in transfected cells
- Sequence (Q9EQD2 whole entry): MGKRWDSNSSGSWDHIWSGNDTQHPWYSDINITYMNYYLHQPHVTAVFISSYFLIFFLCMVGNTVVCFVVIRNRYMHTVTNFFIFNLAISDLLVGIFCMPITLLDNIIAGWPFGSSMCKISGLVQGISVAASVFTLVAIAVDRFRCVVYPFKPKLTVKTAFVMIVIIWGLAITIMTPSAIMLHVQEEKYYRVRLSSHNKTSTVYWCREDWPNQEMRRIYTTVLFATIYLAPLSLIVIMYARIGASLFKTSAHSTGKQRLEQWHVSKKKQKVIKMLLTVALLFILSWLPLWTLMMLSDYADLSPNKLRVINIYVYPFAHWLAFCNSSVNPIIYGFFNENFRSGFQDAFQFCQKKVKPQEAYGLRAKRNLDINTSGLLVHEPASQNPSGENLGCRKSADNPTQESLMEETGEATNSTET
- protocol-details: Radioligand binding assay, competitive displacement of [125I]1DMeNPFF at cloned NPFF receptors
- measurement-conditions: cloned rat receptor
// note: answer is a bare numeric in nM

Previously resolved entries follow.
compound	recorded-number
CN(C)c1cccc2c(S(=O)(=O)N[C@@H](CCCN=C(N)N)C(=O)N[C@@H](Cc3ccccc3)C(N)=O)cccc12 [dansyl-RFamide, reference compound]	2310
N=C(N)NCCC[C@H](NS(=O)(=O)c1c(Cl)cccc1Cl)C(=O)N[C@@H](Cc1ccccc1)C(N)=O [Compound 1019]	3370
N=C(N)NCCC[C@H](NS(=O)(=O)c1cccc2ccccc12)C(=O)N[C@@H](Cc1ccccc1)C(N)=O [Compound 1001]	1450

Let me know recorded Ki for N=C(N)NCCC[C@@H](NS(=O)(=O)c1ccc(F)cc1)C(=O)N[C@@H](Cc1ccccc1)C(N)=O [Compound 1028] , thanks.
8060

Let me know recorded Ki for N=C(N)NCCC[C@H](NS(=O)(=O)c1ccc(Cl)cc1Cl)C(=O)N[C@@H](Cc1ccccc1)C(N)=O [Compound 1010] , thanks.
1860

====

- tested-system: rNPFF-2 (Rattus norvegicus, UniProt Q9EQD2)
- Construct: expressed in transfected cells
- protocol-details: Functional activity (EC50 and intrinsic activity relative to NPFF)
- Type: cell-based
pEC50: −log10 of the molar value.
readout-type: pEC50

Let me know recorded pEC50 for `N=C(N)NCCC[C@H](NS(=O)(=O)c1ccc([N+](=O)[O-])cc1[N+](=O)[O-])C(=O)N[C@@H](Cc1ccccc1)C(N)=O` , thanks.
< 5.00

====

- tested-system: rNPFF-2 (Rattus norvegicus, UniProt Q9EQD2)
- Construct: expressed in transfected cells
- protocol-details: Functional activity (EC50 and intrinsic activity relative to NPFF)
- Format: cell-based
- measurement-conditions: intrinsic activity as percentage of maximal response by NPFF
Tick satisfied if Functional Activity rNPFF-2 I.A. % is 40% or greater. Tick not satisfied if Functional Activity rNPFF-2 I.A. % is less than 40%.

Would you please look over these solved cases?
molecule	cat
N=C(N)NCCC[C@H](NS(=O)(=O)c1ccc(I)cc1)C(=O)N[C@@H](Cc1ccccc1)C(N)=O [Compound 1012]	satisfied
N=C(N)NCCC[C@H](NS(=O)(=O)Cc1ccccc1)C(=O)N[C@@H](Cc1ccccc1)C(N)=O [Compound 1011]	satisfied
N=C(N)NCCC[C@H](NS(=O)(=O)c1c(F)cccc1F)C(=O)N[C@@H](Cc1ccccc1)C(N)=O [Compound 1004]	satisfied
N=C(N)NCCC[C@H](NS(=O)(=O)c1cccs1)C(=O)N[C@@H](Cc1ccccc1)C(N)=O [Compound 1013]	satisfied
N#Cc1cccc(S(=O)(=O)N[C@@H](CCCNC(=N)N)C(=O)N[C@@H](Cc2ccccc2)C(N)=O)c1 [Compound 1023]	not satisfied

Dear colleague, could you confirm whether N=C(N)NCCC[C@H](NS(=O)(=O)c1ccccc1)C(=O)N[C@@H](Cc1ccccc1)C(N)=O [Compound 1008] has Functional Activity rNPFF-2 I.A. % at or above 40%?
not satisfied

Dear colleague, could you confirm whether N=C(N)NCCC[C@H](NS(=O)(=O)c1ccc2ccccc2c1)C(=O)N[C@@H](Cc1ccccc1)C(N)=O [Compound 1014] has Functional Activity rNPFF-2 I.A. % at or above 40%?
satisfied

====

Collected log10 of Ki values appear next to each entry.
- tested-system: rNPFF-1 (Rattus norvegicus)
- Construct: expressed in transfected cells
- protocol-details: Radioligand binding assay, competitive displacement of [125I]1DMeNPFF at cloned NPFF receptors
- measurement-conditions: cloned rat receptor
In plain terms, each number is the log10 of measured Ki in nM.

Previously resolved entries follow.
structure-smiles	recorded-number
N#Cc1ccccc1S(=O)(=O)N[C@@H](CCCNC(=N)N)C(=O)N[C@@H](Cc1ccccc1)C(N)=O	2.71
N=C(N)NCCC[C@H](NS(=O)(=O)c1ccc(Cl)cc1)C(=O)N[C@@H](Cc1ccccc1)C(N)=O	2.42
N=C(N)NCCC[C@H](NS(=O)(=O)c1ccc(C(F)(F)F)cc1[N+](=O)[O-])C(=O)N[C@@H](Cc1ccccc1)C(N)=O	3.29
Cc1ccc(S(=O)(=O)N[C@@H](CCCNC(=N)N)C(=O)N[C@@H](Cc2ccccc2)C(N)=O)cc1	2.88

Alright, here's another compound for you.
// fetch log10 of Ki; item: `N=C(N)NCCC[C@H](NS(=O)(=O)c1ccc(Cl)c([N+](=O)[O-])c1)C(=O)N[C@@H](Cc1ccccc1)C(N)=O` ; system: rNPFF-1 (Rattus norvegicus)
2.18

====

- tested-system: rNPFF-1 (Rattus norvegicus, UniProt Q9EP86)
- Construct: expressed in transfected cells
- Sequence (Q9EP86 whole entry): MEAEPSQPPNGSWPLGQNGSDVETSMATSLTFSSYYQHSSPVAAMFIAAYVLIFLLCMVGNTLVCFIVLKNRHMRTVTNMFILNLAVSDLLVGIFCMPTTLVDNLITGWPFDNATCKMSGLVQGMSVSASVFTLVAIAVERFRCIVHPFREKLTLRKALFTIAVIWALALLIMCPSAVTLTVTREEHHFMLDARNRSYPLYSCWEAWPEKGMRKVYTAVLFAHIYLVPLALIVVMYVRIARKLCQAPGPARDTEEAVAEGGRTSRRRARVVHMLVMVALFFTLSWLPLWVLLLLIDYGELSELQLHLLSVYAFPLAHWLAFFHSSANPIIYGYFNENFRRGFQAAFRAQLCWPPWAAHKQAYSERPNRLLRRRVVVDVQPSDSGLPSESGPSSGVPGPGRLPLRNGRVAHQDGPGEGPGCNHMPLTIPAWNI
- protocol-details: Radioligand binding assay, competitive displacement of [125I]1DMeNPFF at cloned NPFF receptors
- measurement-conditions: cloned rat receptor
Mark 1 (yes) only when Ki stays strictly below 300 nM. Values equal to the cut-off are 0 (no).

Would you please look over these solved cases?
compound	cat
COc1ccc(S(=O)(=O)N[C@@H](CCCNC(=N)N)C(=O)N[C@@H](Cc2ccccc2)C(N)=O)cc1	0 (no)
N=C(N)NCCC[C@H](NS(=O)(=O)c1ccc(Cl)cc1Cl)C(=O)N[C@@H](Cc1ccccc1)C(N)=O	0 (no)
COc1ccc(Br)cc1S(=O)(=O)N[C@@H](CCCNC(=N)N)C(=O)N[C@@H](Cc1ccccc1)C(N)=O	0 (no)

Input `N=C(N)NCCC[C@H](NS(=O)(=O)c1c(F)c(F)c(F)c(F)c1F)C(=O)N[C@@H](Cc1ccccc1)C(N)=O` ; condition: Ki strictly below 300 nM. Does it hold?
0 (no)

Input `N=C(N)NCCC[C@H](NS(=O)(=O)c1cccc2ccccc12)C(=O)N[C@@H](Cc1ccccc1)C(N)=O` ; condition: Ki strictly below 300 nM. Does it hold?
1 (yes)

Input `N=C(N)NCCC[C@H](NS(=O)(=O)c1c(F)cccc1F)C(=O)N[C@H](Cc1ccccc1)C(N)=O` ; condition: Ki strictly below 300 nM. Does it hold?
0 (no)

====

- tested-system: rNPFF-2 (Rattus norvegicus, UniProt Q9EQD2)
- Construct: expressed in transfected cells
- protocol-details: Functional activity (EC50 and intrinsic activity relative to NPFF)
- Assay type: cell-based
- measurement-conditions: tested 0.001 nM to 3600 nM; read-out: Functional Activity rNPFF-2 EC50
Collected EC50 values appear next to each entry.
// note: answer is a bare numeric in nM

compound	tested-system	EC50 / nM
CN(C)c1cccc2c(S(=O)(=O)N[C@@H](CCCN=C(N)N)C(=O)N[C@@H](Cc3ccccc3)C(N)=O)cccc12 [dansyl-RFamide, reference compound]	rNPFF-2 (Rattus norvegicus, UniProt Q9EQD2)	2520

Alright, here's another compound for you.
Let me know recorded EC50 for N=C(N)NCCC[C@H](NS(=O)(=O)c1cccc([N+](=O)[O-])c1)C(=O)N[C@@H](Cc1ccccc1)C(N)=O [Compound 1002] , thanks.
846

====

- tested-system: rNPFF-1 (Rattus norvegicus, UniProt Q9EP86)
- Construct: expressed in transfected cells
- protocol-details: Functional activity (EC50 and intrinsic activity relative to NPFF)
- Assay type: cell-based
- measurement-conditions: intrinsic activity as percentage of maximal response by NPFF
readout-type: Functional Activity rNPFF-1 I.A. % (%)
// note: answer is a bare numeric in %

Previously resolved entries follow.
structure-smiles	tested-system	measurement-units	Functional Activity rNPFF-1 I.A. %
N=C(N)NCCC[C@H](NS(=O)(=O)c1ccc(Cl)c(Cl)c1)C(=O)N[C@@H](Cc1ccccc1)C(N)=O	rNPFF-1 (Rattus norvegicus, UniProt Q9EP86)	%	86
N=C(N)NCCC[C@H](NS(=O)(=O)c1ccc(Cl)cc1)C(=O)N[C@@H](Cc1ccccc1)C(N)=O	rNPFF-1 (Rattus norvegicus, UniProt Q9EP86)	%	75
N=C(N)NCCC[C@H](NS(=O)(=O)c1c(F)cccc1F)C(=O)N[C@@H](Cc1ccccc1)C(N)=O	rNPFF-1 (Rattus norvegicus, UniProt Q9EP86)	%	79
N=C(N)NCCC[C@H](NS(=O)(=O)c1ccc([N+](=O)[O-])cc1[N+](=O)[O-])C(=O)N[C@@H](Cc1ccccc1)C(N)=O	rNPFF-1 (Rattus norvegicus, UniProt Q9EP86)	%	34
COc1ccc(C)cc1S(=O)(=O)N[C@@H](CCCNC(=N)N)C(=O)N[C@@H](Cc1ccccc1)C(N)=O	rNPFF-1 (Rattus norvegicus, UniProt Q9EP86)	%	102
N=C(N)NCCC[C@H](NS(=O)(=O)c1ccc([N+](=O)[O-])cc1)C(=O)N[C@@H](Cc1ccccc1)C(N)=O	rNPFF-1 (Rattus norvegicus, UniProt Q9EP86)	%	74

Let me know recorded Functional Activity rNPFF-1 I.A. % for `N=C(N)NCCC[C@H](NS(=O)(=O)c1c(Cl)cccc1Cl)C(=O)N[C@@H](Cc1ccccc1)C(N)=O` , thanks.
56
